Please go through the items and note down their growth.
Tested on: COLO 205 colon
ASSAY_NAME: NCI-60 one-dose screen, 48 h (100 = growth as untreated, 0 = no growth, -100 = all killed)
EXPERIMENTAL_SETUP: 10 µM unless noted
Compounds without any hit were thinned out: in the full panel of roughly 83,000, 20% have a hit.
Field format: number, assumed %, no unit text.

Record O=C(O)c1ccc(NCc2cn(-c3ccc(C(F)(F)F)cc3)nc2-c2ccc(C(=O)O)cc2)cc1 . Reported growth: 119

Record O=C1c2cccc3c(-c4ccc5c(c4)ncn5C4CCCCC4)ccc(c23)C(=O)N1CCO . Reported growth: 108

Record CC(C)(C)c1ccc(NS(=O)(=O)c2ccc3nc(NC(=O)c4cnccn4)[nH]c3c2)cc1 . Reported growth: 21.7

Record Cc1cc2nc3c4cc(C=O)ccc4n(CCN(C)C)c3nc2cc1C . Reported growth: -15.9

Record CCCCCN1C=C/C(=C\C(=O)N(C)c2ccc(Oc3ccccc3)cc2)c2ccccc21 . Reported growth: 81.6

Record C[C@H]1[C@H](C)CC[C@]2(C(=O)Nc3ccc4ncccc4c3)CC[C@]3(C)C(=CC[C@@H]4[C@@]5(C)CCCNC(C)(C)[C@@H]5CC[C@]43C)[C@H]12 . Reported growth: -82.7

Record COc1ccc(C/C(C)=C(/c2ccc(OCCCN(C)C)cc2)c2ccc(OC(C)=O)cc2)cc1 . Reported growth: 50.1

Record N#Cc1cccc(-c2ccc3c(c2)NC(=O)/C3=C\c2ccc[nH]2)c1 . Reported growth: 3.47

Record CCOC(=O)Oc1c(OC)cc(C(=O)c2ccc(OC)c(OC(=O)CCl)c2OC)cc1OC . Reported growth: 94.8

---

System: CAKI-1 renal
ASSAY_NAME: NCI-60 one-dose screen, 48 h (100 = growth as untreated, 0 = no growth, -100 = all killed)
EXPERIMENTAL_SETUP: 10 µM unless noted
About 83,000 compounds went through this panel and 20% of them were active in at least one assay; those are over-represented in the sample as a whole.
Please go through the items and note down their growth.
Field format: number, assumed %, no unit text.

Record CNC(=O)c1cccc(Cn2nc(C)c(NC(=O)c3ccc(COc4ccc(C(F)(F)F)cc4C)cc3)c2C)c1 . Reported growth: 47

Record O=C(CCN1CCCC1)Nc1ccc2c(NCCCc3ccccc3)c3ccccc3nc2c1 . Reported growth: 27.5

Record CN1CCN(CCNc2nccc(-c3c(-c4cccc(O)c4)nc4sccn34)n2)S1(=O)=O . Reported growth: 61.8

Record CCOC(=O)c1cc(C(=O)c2ccc(Br)cc2)n2ccc(/C=C/c3cc[n+](CC(=O)c4ccc(OC)cc4)cc3)cc12 . Reported growth: 93.2

Record COc1cc(/C=C\C(=O)O)ccc1OCc1ccccc1 . Reported growth: 99.4

---

Tested on: HOP-62 NSCLC
ASSAY_NAME: NCI-60 one-dose screen, 48 h (100 = growth as untreated, 0 = no growth, -100 = all killed)
EXPERIMENTAL_SETUP: 10 µM unless noted
Procedure: Growth inhibition of the HOP-62 human Non-Small Cell Lung tumor cell line is measured as a screen for anti-cancer activity. Cells are grown in 96 well plates and exposed to the test compound for 48 hours. Compounds are tested at a single concentration, which is 10^-5 M for most compounds. The reported endpoint is percent growth (GI% or GIPRCNT), where numbers from 0 - 100% represent growth inhibition, and numbers from -100% - 0 represent cell death. […]
About 83,000 compounds went through this panel and 20% of them were active in at least one assay; those are over-represented in the sample as a whole.
Please go through the items and note down their growth.
Field format: number, assumed %, no unit text.

Record CC(Sc1nc2ccccc2c(=O)n1CCc1ccc(S(N)(=O)=O)cc1)C(=O)Nc1ccc(Cl)cc1 (stereo not given) . Reported growth: 84.4

Record NC(=NCc1ccccc1)C(N=Nc1ccccc1)C(=O)NCc1ccccc1 (stereo not given) . Reported growth: 92.2

Record CCOC(=O)c1cc(C(=O)c2ccc(OC)c(OC)c2)n2c1ccc1ccccc12 . Reported growth: 85

Record N#C/C(=C\c1ccc([N+](=O)[O-])s1)c1nc2cc(Cl)ccc2s1 . Reported growth: 12.6

Record COc1cc(/C(C)=C(\c2ccc(Cl)cc2)c2ccc(OCCN3CCCC3)cc2)ccc1F . Reported growth: 87.2

---

System: SF-295 CNS
ASSAY_NAME: NCI-60 one-dose screen, 48 h (100 = growth as untreated, 0 = no growth, -100 = all killed)
EXPERIMENTAL_SETUP: 10 µM unless noted
The panel holds about 83,000 compounds, 20% with a hit somewhere; the sample as a whole holds those more often.
REPORTED_METRIC: growth (%)
Field format: number, assumed %, no unit text.

Record CCOC(=O)C1=C(CCl)NC(=O)NC1c1ccc2c(c1)OCO2 (stereo not given) . Reported growth: 71.1

Record COc1cccc2c1c1nc3cc(C)c(C)cc3nc1n2CCN(C)C . Reported growth: 20.1

Record O=C(/C(=C\c1ccc([N+](=O)[O-])cc1)S(=O)Cc1ccc(F)cc1)c1ccc(F)cc1 (stereo not given) . Reported growth: 77.6

Record CCC(CC)NCC(C)(C)O . Reported growth: 103

Record C[C@@H](Nc1ncnc2ccc(-c3cnc(N)nc3)cc12)c1ccc(F)cc1 . Reported growth: 81.7

Record COc1cc(/C=C\c2cc(/C=C\c3ccc(O)c(OC)c3)n(C(=O)COc3ccccc3)n2)ccc1O . Reported growth: 15.5

Record COc1ccc(/C=C/c2nc(Nc3ccc(Cl)cc3)c3ccccc3n2)cc1 . Reported growth: 72.6

Record COc1cc(/C=N/NC(=O)c2cnn3c2NC(c2ccccc2)C3)ccc1Oc1ccccc1 (stereo not given) . Reported growth: 0.968

Record CCCCCCCC(=O)OCC/C=C/C1OC1C1OC(=O)/C=C\C=C\C(=O)N(C(C)=O)C(=O)/C=C(/C)CCC2OC2C1OC(=O)NC(C)=O (stereo not given) . Reported growth: 90.9

Record COC(=O)C(CC=O)C(=O)C(=O)Nc1cccc(C(F)(F)F)c1 (stereo not given) . Reported growth: 110

---

Test system: MALME-3M melanoma
ASSAY_NAME: NCI-60 one-dose screen, 48 h (100 = growth as untreated, 0 = no growth, -100 = all killed)
EXPERIMENTAL_SETUP: 10 µM unless noted
Method: Cells are grown in 96 well plates and exposed to the test compound for 48 hours. Compounds are tested at a single concentration, which is 10^-5 M for most compounds. The reported endpoint is percent growth (GI% or GIPRCNT), where numbers from 0 - 100% represent growth inhibition, and numbers from -100% - 0 represent cell death. For example, a value of 40 represents 60% growth inhibition. A value of 0 means no net growth occurred over the course of the experiment. […]
About 83,000 compounds went through this panel and 20% of them were active in at least one assay; those are over-represented in the sample as a whole.
Please go through the items and note down their growth.
Field format: number, assumed %, no unit text.

Record COc1ccc(-c2nc3sccn3c2/C=C/C(=O)c2ccc3c(c2)OCO3)cc1 . Reported growth: 84.6

Record NC1=NN=C(N)C1=Cc1cc2ccccc2n2nnnc12 . Reported growth: 108

Record O=S(=O)(NCCNc1nccc(-c2c(-c3cccc(O)c3)nc3occn23)n1)c1ccccc1 . Reported growth: 2.3

Record N#C/C(=C\c1c(-c2ccccc2)[nH]c2ccccc12)C(=O)c1ccc(Cl)cc1 . Reported growth: 37.2

Record CCOc1cccc(-c2nc(N)nc(Nc3ccccc3SSc3ccccc3Nc3nc(N)nc(-c4cccc(OCC)c4)n3)n2)c1 . Reported growth: 97

---

Test system: HOP-92 NSCLC
ASSAY_NAME: NCI-60 one-dose screen, 48 h
EXPERIMENTAL_SETUP: 10 µM unless noted
Compounds without any hit were thinned out: in the full panel of roughly 83,000, 20% have a hit. Calls of active or inactive are those of the source. How the source made its calls: active means growth percent below 10; inactive means the rest.
Assign a class; possible classes are t for active, f for inactive

Exercise: Which result was noted for this compound in the test: CCOC(=O)/C(C#N)=C1/NNC(=Nc2cccnc2)S1
Key: f

Exercise: Which result was noted for this compound in the test: COc1cc(/C=N/O)nc(-c2ccccn2)c1
Key: f

Exercise: Which result was noted for this compound in the test: CC(=O)c1ccc(NS(=O)(=O)c2cccc(C(=O)Nc3ccc(Br)cc3)c2)cc1
Key: f

Exercise: Which result was noted for this compound in the test: COc1cc(/C=N/NC(=O)c2cnn3c2NC(c2ccccc2)C3)ccc1OCc1ccccc1 (stereo not given)
Key: t

Exercise: Which result was noted for this compound in the test: O=C(/C=C/c1ccc[nH]1)c1ccc(-n2ccc(C(F)(F)F)n2)c(F)c1
Key: f

Exercise: Which result was noted for this compound in the test: N#Cc1c(-c2cccc([N+](=O)[O-])c2)nc(SCC(=O)c2ccc(Cl)cc2)[nH]c1=O
Key: f

Exercise: Which result was noted for this compound in the test: COc1ccc(C(=O)C2C(C#N)C(C#N)C3C=Cc4ccccc4N32)cc1 (stereo not given)
Key: f

Exercise: Which result was noted for this compound in the test: CCCCCOc1ccc(/C=N/Nc2cc(C)nc3ccc(Cl)cc23)cc1
Key: f

Exercise: Which result was noted for this compound in the test: CCCCCCCCOc1ccc(/C=N/Nc2cc(C)nc3ccc(Br)cc23)cc1
Key: f

Exercise: Which result was noted for this compound in the test: O=C(C1CCC1)N1N=C(c2ccc(-n3ccc(C(F)(F)F)n3)cc2)CC1c1ccc[nH]1 (stereo not given)
Key: f

Exercise: Which result was noted for this compound in the test: Nc1c(S(=O)(=O)O)cc2c3c(cccc13)C(=O)OC2=O
Key: f

Exercise: Which result was noted for this compound in the test: CCCCCCNC(=O)Nc1ccc2cc3ccc(NC(=O)NCCCCCC)cc3nc2c1
Key: f

Exercise: Which result was noted for this compound in the test: CN(C)c1ccc(Nc2c3ccccc3nc3cc(NC(=O)CCN4CCCC4)ccc23)cc1
Key: t

Exercise: Which result was noted for this compound in the test: CC1=C(C(=O)/C=C/c2c[nH]c3ccccc23)C(c2ccccc2)NC(=S)N1 (stereo not given)
Key: f

Exercise: Which result was noted for this compound in the test: CCOC(=O)CSc1nc2ccccc2c(=O)n1Cc1ccc(S(N)(=O)=O)cc1
Key: f

Exercise: Which result was noted for this compound in the test: O=c1ccc(-c2nc(N3CCOCC3)c3ccccc3n2)c[nH]1
Key: f

Exercise: Which result was noted for this compound in the test: CC(C)N1C(=O)/C(=C2\SC(=S)N(C(C)C)C2=O)SC1=S
Key: f

Exercise: Which result was noted for this compound in the test: CCC(=O)Oc1ccc(/C(=C(\C)c2ccccc2)c2ccc(OCCN3CCCCC3)cc2)cc1
Key: f

Exercise: Which result was noted for this compound in the test: CC(C)c1ccc(Nc2ccc3c(OCCCN4CCN(C)CC4)cccc3n2)cc1
Key: f

Exercise: Which result was noted for this compound in the test: CC1(C)NCCC[C@]2(C)[C@H]3CC(=O)[C@H]4[C@@H]5C[C@](C)(CO)CC[C@]5(C)CC[C@@]4(C)[C@]3(C)CC[C@@H]12
Key: f

Data origin, for the record: PubChem BioAssay (NCI)
